test system: P388; assay: Antitumor activity against mouse P388 cells allografted in BDF1 mouse assessed as increase in survival time at 25 mg/kg administered 24 hrs post challenge relative to control; assay type: functional
PARAMETER: T/C (%)
Write down the numeric answer in % and omit the unit.

# INPUT_SMILES, QUANTITY_UNIT, REPORTED_VALUE
records = [
    ("NCCNc1ccc(NCCN)c2c1C(=O)c1ccccc1C2=O", "%", 215),
]

-- ask Need T/C of O=C1c2ccccc2C(=O)c2c(NCCCCCO)ccc(NCCCCCO)c21 , thanks.
-- reply 88

-- ask Need T/C of CCCNCCNc1ccc(NCCNCCC)c2c1C(=O)c1ccccc1C2=O , thanks.
-- reply 118

-- ask Need T/C of O=C1c2ccccc2C(=O)c2c(NCCCNCCO)ccc(NCCCNCCO)c21 , thanks.
-- reply 130

-- ask Need T/C of O=C1c2ccccc2C(=O)c2c(NCCSCCO)ccc(NCCSCCO)c21 , thanks.
-- reply 95

-- ask Need T/C of O=C1c2ccccc2C(=O)c2c(NCCNCCNCCO)ccc(NCCNCCNCCO)c21 , thanks.
-- reply 110

-- ask Need T/C of O=C1c2ccccc2C(=O)c2c(NCCN3CCCCC3)ccc(NCCN3CCCCC3)c21 , thanks.
-- reply 104

-- ask Need T/C of O=C1c2ccccc2C(=O)c2c3c(cc(NCCNCCO)c21)N(CCO)CCN3 , thanks.
-- reply 155

-- ask Need T/C of CCNCCNc1ccc(NCCNCC)c2c1C(=O)c1ccccc1C2=O , thanks.
-- reply 132

-- ask Need T/C of O=C1c2ccccc2C(=O)c2c(NCCN3CCNCC3)ccc(NCCN3CCNCC3)c21 , thanks.
-- reply 137

====

tested on: P388; assay: Antitumor activity against mouse P388 cells allografted in BDF1 mouse assessed as mouse survival at 25 mg/kg administered 24 hrs post challenge relative to control; type: functional, organism-based; design: dose 25 mg/kg
Activity calls are given as the source filed them. The calls are words filed in the database; no cut-off is given here.
PARAMETER: Activity

# INPUT_SMILES, REPORTED_VALUE
data = [
    ("CCCNCCNc1ccc(NCCNCCC)c2c1C(=O)c1ccccc1C2=O", "Active"),
    ("O=C1c2ccccc2C(=O)c2c(NCCNCCNCCO)ccc(NCCNCCNCCO)c21", "Active"),
    ("O=C1c2ccccc2C(=O)c2c(NCCN3CCCCC3)ccc(NCCN3CCCCC3)c21", "Active"),
    ("O=C1c2ccccc2C(=O)c2c3c(cc(NCCNCCO)c21)N(CCO)CCN3", "Active"),
    ("O=C1c2ccccc2C(=O)c2c(NCCN3CCNCC3)ccc(NCCN3CCNCC3)c21", "Active"),
]

-- ask Need Activity of O=C1c2ccccc2C(=O)c2c(NCCSCCO)ccc(NCCSCCO)c21 , thanks.
-- reply Active

-- ask Need Activity of O=C1c2ccccc2C(=O)c2c(NCCCCCO)ccc(NCCCCCO)c21 , thanks.
-- reply Active

-- ask Need Activity of NCCNc1ccc(NCCN)c2c1C(=O)c1ccccc1C2=O , thanks.
-- reply Active

====

tested on: Mus musculus; assay: Toxicity in mouse P388 cells allografted BDF1 mouse assessed as body weight difference at 100 mg/kg administered 24 hrs post challenge relative to control; assay type: organism-based; set-up: dose 100 mg/kg; details: in vivo
# Activity listing for each entry below
Write down the numeric answer in g and omit the unit.

Sample records with Activity:
# INPUT_SMILES, QUANTITY_UNIT, REPORTED_VALUE
records = [
    ("CCCNCCNc1ccc(NCCNCCC)c2c1C(=O)c1ccccc1C2=O", "g", -2.6),
    ("O=C1c2ccccc2C(=O)c2c(NCCNCCNCCO)ccc(NCCNCCNCCO)c21", "g", -2.6),
    ("O=C1c2ccccc2C(=O)c2c(NCCN3CCCCC3)ccc(NCCN3CCCCC3)c21", "g", -4.5),
]

-- ask Need Activity of O=C1c2ccccc2C(=O)c2c(NCCCCCO)ccc(NCCCCCO)c21 , thanks.
-- reply -4

-- ask Need Activity of O=C1c2ccccc2C(=O)c2c3c(cc(NCCNCCO)c21)N(CCO)CCN3 , thanks.
-- reply -3.8

-- ask Need Activity of O=C1c2ccccc2C(=O)c2c(NCCCNCCO)ccc(NCCCNCCO)c21 , thanks.
-- reply -2.6

-- ask Need Activity of O=C1c2ccccc2C(=O)c2c(NCCSCCO)ccc(NCCSCCO)c21 , thanks.
-- reply -2.2

-- ask Need Activity of COc1ccc(CCNc2ccc(NCCc3ccc(OC)c(OC)c3)c3c2C(=O)c2ccccc2C3=O)cc1OC , thanks.
-- reply -1.7
